experimentalSystem: Dual specificity mitogen-activated protein kinase kinase 1 (Homo sapiens)
runDescription: Inhibition of MAP2K1 in human PC3 cell lysates at 10 uM using desthiobiotin-tagged ATP probe AX9989 followed by trypsinization by LC/MS analysis
conditionSummary: PC-3
measuredQuantity: inhibition

1) CCC[C@@H](NC(=O)c1ccc2nc(N[C@H]3CC[C@H](O)CC3)c3nccn3c2c1)c1ccccc1 ... < 35%
2) NC(=O)c1ccc2nc(N[C@H]3CC[C@H](O)CC3)c3nccn3c2c1 ... < 35%
3) O=C(N[C@H](CO)c1ccccc1)c1ccc2nc(N[C@H]3CC[C@H](O)CC3)c3nccn3c2c1 ... < 35%
4) C[C@H](NC(=O)c1ccc2nc(N[C@H]3CC[C@H](O)CC3)c3nccn3c2c1)c1ccccc1 ... < 35%
5) CC(C)(NC(=O)c1ccc2nc(N[C@H]3CC[C@H](O)CC3)c3nccn3c2c1)c1ccccc1 ... < 35%

Entry O=C(NC1(c2ccccc2)CC1)c1ccc2nc(N[C@H]3CC[C@H](O)CC3)c3nccn3c2c1 , tested on Dual specificity mitogen-activated protein kinase kinase 1 (Homo sapiens), has a reported inhibition of < 35%

Entry O=C(NC1(c2ccccc2)CCC1)c1ccc2nc(N[C@H]3CC[C@H](O)CC3)c3nccn3c2c1 , tested on Dual specificity mitogen-activated protein kinase kinase 1 (Homo sapiens), has a reported inhibition of < 35%
